# System: human Hep G2 cells (ATCC HB-8065)
# METHOD_NOTES: Cytotoxicity in Hep G2 cells (CellTiter-Glo)
# Type: cell-based
# MEASUREMENT_PARAMETERS: Hep G2 cells, 100 μM test article, 24-hour exposure
EXPERIMENTAL_READOUT: % Cell Viability (%)
Give the value, in units of %, as a plain number.

COc1cc(-c2cc(C(=O)N(C)C)n(C)c2)cc([C@@H](C)NC(=O)c2cc(N3CCN(C)CC3)ccc2C)c1 [Example 289] :: 59.5
COc1ccc([C@@H](C)NC(=O)c2cc(N3C[C@@H]4C[C@H]3CN4C)ccc2C)cc1OC [Example 12] :: 91.1

Now turn to the next molecule.
Look up and state reported % Cell Viability for Cc1ccc(N2CCN(C)CC2)cc1C(=O)N[C@H](C)c1ccc(N2CCNCC2)cc1 [Example 106]
87.4

---

# ASSAYED_SYSTEM: SARS-CoV-2 PLpro (Severe acute respiratory syndrome coronavirus 2)
# Construct: containing 60 nM papain-like protease
# METHOD_NOTES: biochemical
# MEASUREMENT_PARAMETERS: 60 nM papain-like protease, 50 μM Z-RLRGG-AMC, pH 7.5, 37° C.; read-out: SARS-CoV-2 PLpro IC50
pIC50: −log10 of the molar value. Structures can show the parent of a compound that is named as a salt.
EXPERIMENTAL_READOUT: pIC50

Example entries and their recorded answers appear below.
COc1ccc([C@@H](C)NC(=O)c2cc(N3CCN(C)CC3)ccc2C)cc1-c1cccc(C(C)(C)O)c1 :: > 5.70
COc1cc(-c2ccccc2)cc([C@@H](C)NC(=O)c2cc(N3CCN(C)CC3)ccc2C)c1 :: > 5.70
Cc1ccc(N2CCN(CC3CC3)CC2)cc1C(=O)N[C@H](C)c1cccc2ccccc12 :: > 5.70

Look up and state reported pIC50 for Cc1ccc(N2CCN(CCO)CC2)cc1C(=O)N[C@H](C)c1cccc(-c2cnn(C)c2)c1
> 5.70

Look up and state reported pIC50 for COc1cc(-c2cnn(C)c2)cc([C@@H](C)NC(=O)c2cc(N3CCCNCC3)ccc2C)c1
> 5.70

Look up and state reported pIC50 for Cc1ccc(N2CCOCC2)cc1C(=O)N[C@H](C)c1cccc2ccccc12
> 5.00

Look up and state reported pIC50 for Cc1ccc(N2CCN(C)CC2)cc1C(=O)N[C@H](C)c1cccc(-c2cnn(C)c2)c1
> 5.70

Look up and state reported pIC50 for C[C@@H](NC(=O)c1cc(C2=CCNC2)ccc1Cl)c1cccc2ccccc12 [Example 146, Hydrochloride Salt]
> 5.70

Look up and state reported pIC50 for Cc1ccc(-c2ccnc(N3CCN(CCC(=O)O)CC3)c2)cc1C(=O)N[C@H](C)c1cccc2ccccc12
> 4.70

---

# System: human Hep G2 cells (ATCC HB-8065)
# METHOD_NOTES: Cytotoxicity in Hep G2 cells (CellTiter-Glo)
# Type: cell-based
# MEASUREMENT_PARAMETERS: Hep G2 cells, 100 μM test article, 24-hour exposure
Recorded measurements of % Cell Viability, one per entry
Give the value, in units of %, as a plain number.

Example entries and their recorded answers appear below.
COc1ccc([C@@H](C)NC(=O)c2cc(N3C[C@H]4C[C@@H]3CN4C)ccc2C)cc1-c1cnn(C)c1 :: 89.9
COc1cc(-c2cn(C)nc2C)cc([C@@H](C)NC(=O)c2cc(N3CCNC4(CC4)C3)ccc2C)c1 :: 81.0
COc1ccc([C@@H](C)NC(=O)c2cc(N3CCN(CCO)CC3)ccc2C)cc1OC :: 103.5
Cc1ccc(N2CCN(C)CC2)cc1C(=O)N[C@H](C)c1cccc(-c2cccc(C(=O)N3CC[C@H](O)C3)c2)c1 :: 88.5
COc1ccc([C@@H](C)NC(=O)c2cc(N3CCN(C)CC3)ccc2C)cc1OC :: 87.3
CCn1cc(-c2cc(OC)cc([C@@H](C)NC(=O)c3cc(N4CCN(C)CC4)ccc3C)c2)cn1 :: 80.7
CNC(=O)c1cccc([C@@H](C)NC(=O)c2cc(N3CCN(C)CC3)ccc2C)c1 :: 78.3

Now turn to the next compound.
Look up and state reported % Cell Viability for COc1ccc([C@@H](C)NC(=O)c2cc(N3CCN(C)CC3)ccc2C)cc1-c1cn[nH]c1
101.2

---

Recorded measurements of pIC50, one per entry
# ASSAYED_SYSTEM: SARS-CoV-2 PLpro (Severe acute respiratory syndrome coronavirus 2, UniProt P0DTD1)
# Construct: containing 60 nM papain-like protease
# METHOD_NOTES: biochemical
# MEASUREMENT_PARAMETERS: 60 nM papain-like protease, 50 μM Z-RLRGG-AMC, pH 7.5, 37° C.; read-out: SARS-CoV-2 PLpro IC50
pIC50: −log10 of the molar value. Counter-ions that a name gives are not always drawn.

COc1cccc([C@@H](C)NC(=O)c2cc(N3CCN(C)CC3)ccc2C)c1 :: > 5.30
COc1cc(-c2cnn(C)c2)cc([C@@H](C)NC(=O)c2cc(N3CC4CN(C)CC4C3)ccc2C)c1 (stereo partly drawn) :: > 5.70
COCCN1CCN(c2ccc(C)c(C(=O)N[C@H](C)c3cccc(-c4cnn(C)c4)c3)c2)CC1 :: > 5.30

Look up and state reported pIC50 for COc1cc(-c2cnn(C)c2)cc([C@@H](C)NC(=O)c2cc(C3CCNCC3)ccc2C)c1
> 5.70

Look up and state reported pIC50 for Cc1ccc(N2CCN3CCCC3C2)cc1C(=O)N[C@H](C)c1cccc2ccccc12 (stereo partly drawn) [Example 125, hydrochloride salt]
> 5.70

Look up and state reported pIC50 for Cc1ccc(N2CCN(C)CC2)cc1C(=O)N[C@H](C)c1cccc(-c2cccc(CN(C)C)c2)c1 [Example 68, Dihydrochloride Salt]
> 5.70

---

# ASSAYED_SYSTEM: SARS-CoV-2 PLpro (Severe acute respiratory syndrome coronavirus 2, UniProt P0DTD1)
# Construct: containing 60 nM papain-like protease
# METHOD_NOTES: biochemical
# MEASUREMENT_PARAMETERS: 60 nM papain-like protease, 50 μM Z-RLRGG-AMC, pH 7.5, 37° C.; read-out: SARS-CoV-2 PLpro IC50
EXPERIMENTAL_READOUT: IC50

Example entries and their recorded answers appear below.
Cc1ccc(N2CCN(C)CC2)cc1C(=O)N[C@H](C)c1cncc(Br)c1 :: < 100 µM
Cc1ccc(N2CCN(C)CC2)cc1C(=O)N[C@H](C)c1cccc(-c2ccc(=O)n(C)c2)c1 :: < 5 µM
C[C@@H](NC(=O)c1cccc(N2CCN(CCC(=O)O)CC2)c1)c1cccc2ccccc12 :: < 20 µM

Look up and state reported IC50 for C[C@@H](NC(=O)c1cc(-c2ccc(C3CCNCC3)cc2)cn1C)c1cccc2ccccc12
> 100 µM

Look up and state reported IC50 for Cc1ccc(N2CCN(C)CC2)cc1C(=O)N[C@H](C)c1cccc(-c2ccc(CO)cc2)c1
< 2 µM

Look up and state reported IC50 for Cc1ccc(N2CCN(C)CC2)cc1C(=O)N[C@H](C)c1cc(OCC2CC2)cc(-c2cnn(C)c2)c1
< 2 µM

Look up and state reported IC50 for COc1cc(-c2cc(C(=O)N(C)C)n(C)c2)cc([C@@H](C)NC(=O)c2cc(N3C[C@H]4C[C@@H]3CN4C)ccc2C)c1
< 2 µM

Look up and state reported IC50 for COc1ccc([C@@H](C)NC(=O)c2cc(N3CCCN(C)CC3)ccc2C)cc1OC
< 10 µM

Look up and state reported IC50 for COc1ccc([C@@H](C)NC(=O)c2cc(N3CCN(CCO)CC3)ccc2C)cc1OC
< 5 µM
